tested on: NCI-H929 complex spheroids, viability % test/control; assay: Anticancer human tumor NCI-H929 cell line growth inhibition [RAS]; details: curve of first compound; second compound 0.03 µM;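 further: compound exposure lasted seven days before viability was read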
pIC50: −log10 of the molar value.
Attribute: pIC50
Assay readout: pIC50

Compound	Assay readout	Value relation sign	Reported measurement
CC1(O)CCCC1n1c(=O)c(C(F)F)cc2cnc(NC3CCN(S(C)(=O)=O)CC3)nc21 (stereo not given) + CCn1c(-c2cccnc2C(C)OC)c2c3cc(ccc31)N1CCOC(CC(NC(=O)C(C(C)C)N(C)C(=O)C3(F)CCN(C(=O)C#CC(C)(C)N(C)C)CC3)C(=O)N3CCCC(N3)C(=O)OCC(C)(C)C2)C1	pIC50	=	7.15
CCc1c2c(nc3ccc(O)cc13)-c1cc3c(c(=O)n1C2)COC(=O)[C@]3(O)CC + CCn1c(-c2cc(N3CCN(C)CC3)cnc2C(C)OC)c2c3cc(ccc31)-c1csc(n1)CC(NC(=O)C1CC1C)C(=O)N1CCCC(N1)C(=O)OCC(C)(C)C2	pIC50	>	9.02
C=CC(=O)Nc1cc(Nc2nccc(-c3cn(C)c4ccccc34)n2)c(OC)cc1N(C)CCN(C)C + CCn1c(-c2cc(N3CCN(C)CC3)cnc2C(C)OC)c2c3cc(ccc31)-c1csc(n1)CC(NC(=O)C1CC1C)C(=O)N1CCCC(N1)C(=O)OCC(C)(C)C2	pIC50	=	6.92
O=C(c1ccc(F)c(F)c1Nc1ccc(I)cc1F)N1CC(O)([C@@H]2CCCCN2)C1 + CCn1c(-c2cccnc2C(C)OC)c2c3cc(ccc31)N1CCOC(CC(NC(=O)C(C(C)C)N(C)C(=O)C3(F)CCN(C(=O)C#CC(C)(C)N(C)C)CC3)C(=O)N3CCCC(N3)C(=O)OCC(C)(C)C2)C1	pIC50	=	6.18
Nc1ccn(C2OC(CO)C(O)C2(F)F)c(=O)n1 (stereo not given) + CCn1c(-c2cccnc2C(C)OC)c2c3cc(ccc31)N1CCOC(CC(NC(=O)C(C(C)C)N(C)C(=O)C3(F)CCN(C(=O)C#CC(C)(C)N(C)C)CC3)C(=O)N3CCCC(N3)C(=O)OCC(C)(C)C2)C1	pIC50	=	8.22

---

tested on: NCI-H929 complex spheroids, viability % test/control; assay: Anticancer human tumor NCI-H929 cell line growth inhibition [RAS]; conditions: second compound 0.0316 µM; first compound 0.1 µM; active = viability on the fitted dose curve at most 10% of control; inactive = the rest;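 further: compound exposure lasted seven days before viability was read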
Labels: active, inactive

Compound	Label class
CC(=O)OC12COC1CC(O)C1(C)C(=O)C(O)C3=C(C)C(OC(=O)C(O)C(NC(=O)OC(C)(C)C)c4ccccc4)CC(O)(C(OC(=O)c4ccccc4)C21)C3(C)C (stereo not given) + C=CC(=O)N1CCN(c2nc(OCC3CCCN3C)nc3c(F)c(-c4nc(N)cc(C)c4C(F)(F)F)c(Cl)cc23)C(C)C1	active
CC(Nc1ccc2c(c1)OCCn1cc(N3C(=O)OCC3C(F)F)nc1-2)C(N)=O (stereo not given) + C=CC(=O)N1CCN(c2nc(OCC3CCCN3C)nc3c(F)c(-c4nc(N)cc(C)c4C(F)(F)F)c(Cl)cc23)C(C)C1	inactive
CCC(CC)c1cc(NC2CCC(N)C2)n2nccc2n1 (stereo not given) + C=CC(=O)N1CCN(c2nc(OCC3CCCN3C)nc3c(F)c(-c4nc(N)cc(C)c4C(F)(F)F)c(Cl)cc23)C(C)C1	inactive
Cc1nc(N2CCC3(CC2)COC(C)C3N)c(CO)nc1Sc1ccnc(N)c1Cl (stereo not given) + C=CC(=O)N1CCN(c2nc(OCC3CCCN3C)nc3c(F)c(-c4nc(N)cc(C)c4C(F)(F)F)c(Cl)cc23)C(C)C1	inactive
C=CC(=O)Nc1cc(Nc2nccc(-c3cn(C)c4ccccc34)n2)c(OC)cc1N(C)CCN(C)C + C=CC(=O)N1CCN(c2nc(OCC3CCCN3C)nc3c(F)c(-c4nc(N)cc(C)c4C(F)(F)F)c(Cl)cc23)C(C)C1	inactive

These measurements were taken from PubChem BioAssay AID2060884.
